- System: Staphylococcus aureus NRS383
- MEASUREMENT DESCRIPTION: MIC panel of challenge pathogens (CLSI)
- Assay type: cell-based
- CONDITION DETAILS: Staphylococcus aureus NRS383; read-out: MIC50 (50%)
# key: entry, value: MIC50
All answers are understood in µg/mL, so give the number only.

                         chemical_structure                   test_target  attribute_measured  measurement_unit  reported_measurement
0  Cc1ccc(Cl)cc1-c1cc(-c2nnn[nH]2)sc1-c1cc(Cl)ccc1C  Staphylococcus aureus NRS383               MIC50             µg/mL                     1

Short answer for Clc1ccc(Cc2sc(-c3nnn[nH]3)cc2-c2cccc(CC3CCCC3)c2)cc1 : MIC50 was 0.5

The value of MIC50 measured for the compound Clc1ccc(-c2cc(-c3nnn[nH]3)sc2-c2ccc(Cl)cc2)cc1 turned out to be 1

Per the record, Cc1cc(Cl)ccc1-c1cc(-c2nnn[nH]2)sc1-c1ccc(Cl)cc1C has MIC50 of 0.5
